All values here come from ChEMBL document CHEMBL2434936.

- assayed target: hERG (KCNH2) (Homo sapiens, UniProt Q12809)
- Sequence (Q12809 whole entry): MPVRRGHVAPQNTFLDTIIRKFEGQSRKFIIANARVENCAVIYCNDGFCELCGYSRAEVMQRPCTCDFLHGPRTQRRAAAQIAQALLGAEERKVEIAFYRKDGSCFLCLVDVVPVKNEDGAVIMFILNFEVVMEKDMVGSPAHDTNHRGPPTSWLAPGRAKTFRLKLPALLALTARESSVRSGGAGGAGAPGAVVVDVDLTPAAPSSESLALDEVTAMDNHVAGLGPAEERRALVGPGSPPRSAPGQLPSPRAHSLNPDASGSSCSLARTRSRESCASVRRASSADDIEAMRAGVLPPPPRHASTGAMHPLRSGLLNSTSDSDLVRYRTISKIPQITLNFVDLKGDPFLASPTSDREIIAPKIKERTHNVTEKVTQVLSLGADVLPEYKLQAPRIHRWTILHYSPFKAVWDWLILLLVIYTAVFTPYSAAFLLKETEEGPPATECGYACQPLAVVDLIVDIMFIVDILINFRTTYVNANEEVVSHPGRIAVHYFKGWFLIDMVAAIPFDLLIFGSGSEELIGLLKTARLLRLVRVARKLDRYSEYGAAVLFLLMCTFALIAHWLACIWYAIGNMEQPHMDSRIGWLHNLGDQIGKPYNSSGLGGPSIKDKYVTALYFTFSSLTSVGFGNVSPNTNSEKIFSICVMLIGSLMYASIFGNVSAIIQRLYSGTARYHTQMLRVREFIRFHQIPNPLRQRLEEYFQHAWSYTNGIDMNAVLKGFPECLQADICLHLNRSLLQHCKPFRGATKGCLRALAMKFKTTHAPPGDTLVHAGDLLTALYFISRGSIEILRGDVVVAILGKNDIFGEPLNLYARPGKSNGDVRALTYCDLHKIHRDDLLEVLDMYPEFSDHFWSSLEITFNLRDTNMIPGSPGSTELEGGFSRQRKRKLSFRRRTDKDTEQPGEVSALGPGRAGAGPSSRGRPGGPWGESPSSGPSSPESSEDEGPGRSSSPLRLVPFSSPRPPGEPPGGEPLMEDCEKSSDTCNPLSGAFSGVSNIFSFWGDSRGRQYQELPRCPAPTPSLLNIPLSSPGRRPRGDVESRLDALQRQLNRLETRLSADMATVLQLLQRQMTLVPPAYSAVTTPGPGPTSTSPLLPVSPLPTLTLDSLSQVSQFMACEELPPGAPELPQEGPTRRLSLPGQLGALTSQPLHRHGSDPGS
- protocol description: Inhibition of human ERG channel at 5 ug/ml after 30 mins by rubidium efflux assay

entry smiles	unit descriptor	inhibition at 0.5 h, 5 ug/ml
Nc1cc(CN2CCC(F)(C(=O)N3CCC(N4CCc5ccccc5C4)CC3)CC2)ccn1	%	2
Nc1cc(CN2CCC(F)(C(=O)N3CCC(N4c5ccccc5Sc5ccc(C(F)(F)F)cc54)CC3)CC2)ccn1	%	79
Nc1cc(CN2CCC(F)(C(=O)N3CCC(N4Cc5ccccc5Cc5ccccc54)CC3)CC2)ccn1	%	50
Nc1cc(CN2CCC(F)(C(=O)N3CCC(N4CCNc5ccccc5C4)CC3)CC2)ccn1	%	12
Nc1cc(CN2CCC(F)(C(=O)N3CCC(N4Cc5ccccc5C4)CC3)CC2)ccn1	%	-2
N#Cc1ccc2c(c1)CN(C1CCN(C(=O)C3(F)CCN(Cc4ccnc(N)c4)CC3)CC1)CC2	%	11
Nc1cc(CN2CCC(F)(C(=O)N3CCC(N4CCCc5ccccc5C4)CC3)CC2)ccn1	%	25
Nc1cc(CN2CCC(F)(C(=O)N3CCC(N4CCc5ccccc5CC4)CC3)CC2)ccn1	%	-2
Nc1cc(CN2CCC(F)(C(=O)N3CCC(N4Cc5ccccc5-c5ccccc5C4)CC3)CC2)ccn1	%	27
